The measured values listed here are drawn from ChEMBL document CHEMBL3627598.

Target: Tyrosinase (Mus musculus)
Sequence (whole entry): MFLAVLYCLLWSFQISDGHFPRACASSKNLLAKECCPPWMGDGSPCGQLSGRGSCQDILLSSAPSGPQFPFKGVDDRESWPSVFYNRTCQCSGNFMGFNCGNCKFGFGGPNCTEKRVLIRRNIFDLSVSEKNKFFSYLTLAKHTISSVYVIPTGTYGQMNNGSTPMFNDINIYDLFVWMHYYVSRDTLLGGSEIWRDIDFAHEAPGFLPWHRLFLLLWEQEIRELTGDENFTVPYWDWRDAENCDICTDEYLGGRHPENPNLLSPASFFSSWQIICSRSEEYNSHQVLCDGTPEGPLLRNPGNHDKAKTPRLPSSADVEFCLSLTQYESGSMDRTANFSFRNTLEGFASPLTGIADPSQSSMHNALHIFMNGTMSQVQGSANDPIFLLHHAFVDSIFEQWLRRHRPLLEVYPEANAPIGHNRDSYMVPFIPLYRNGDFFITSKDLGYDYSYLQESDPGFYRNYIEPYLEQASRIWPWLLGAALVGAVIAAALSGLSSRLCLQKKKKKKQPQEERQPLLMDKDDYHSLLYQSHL
Assay: Inhibition of tyrosinase in mouse B16F10 cells assessed as reduction of melanin production at 20 ug/ml incubated for 72 hrs
Assay type: cell-based
Conditions: B16-F10
measured_parameter: inhibition (%)

O=C1OC(c2ccc(/N=N/c3ccc(N4CCOCC4)cc3)cc2)=N/C1=C/c1ccc(F)cc1 :: 38.8
O=C1OC(c2ccc(/N=N/c3ccc(N4CCOCC4)cc3)cc2)=N/C1=C/c1ccccc1[N+](=O)[O-] :: 30.7
O=C1OC(c2ccc(/N=N/c3ccc(N4CCOCC4)cc3)cc2)=N/C1=C/c1ccc(Cl)cc1 :: 34.4
O=C1OC(c2ccc(/N=N/c3ccc(N4CCOCC4)cc3)cc2)=N/C1=C/c1cccs1 :: 31.2
O=C1OC(c2ccc(/N=N/c3ccc(N4CCOCC4)cc3)cc2)=N/C1=C/c1ccc(F)cc1Cl :: 32.4
O=C1OC(c2ccc(/N=N/c3ccc(N4CCOCC4)cc3)cc2)=N/C1=C/c1ccccc1 :: 40.1

====

target: Tyrosinase (Agaricus bisporus, UniProt O42713); test: Inhibition of mushroom tyrosinase using L-DOPA as substrate assessed as formation of L-DOPA chrome preincubated for 10 mins followed by addition of substrate measured over 10 mins by […]
Sequence (O42713 whole entry): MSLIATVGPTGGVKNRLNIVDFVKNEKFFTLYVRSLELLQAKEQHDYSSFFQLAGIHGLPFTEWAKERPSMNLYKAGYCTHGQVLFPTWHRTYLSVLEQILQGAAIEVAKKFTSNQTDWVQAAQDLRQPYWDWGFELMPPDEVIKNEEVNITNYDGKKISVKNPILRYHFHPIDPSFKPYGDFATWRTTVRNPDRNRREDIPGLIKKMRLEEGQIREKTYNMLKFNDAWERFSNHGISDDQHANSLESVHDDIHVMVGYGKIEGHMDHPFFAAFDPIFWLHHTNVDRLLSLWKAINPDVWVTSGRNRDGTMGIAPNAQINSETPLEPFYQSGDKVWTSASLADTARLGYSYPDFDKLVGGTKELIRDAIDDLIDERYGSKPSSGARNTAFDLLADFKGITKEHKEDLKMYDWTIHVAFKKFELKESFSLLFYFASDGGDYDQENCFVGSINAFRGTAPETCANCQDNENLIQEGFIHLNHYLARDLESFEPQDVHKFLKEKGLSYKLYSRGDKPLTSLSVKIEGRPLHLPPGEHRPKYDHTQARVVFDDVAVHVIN
measured_parameter: IC50 (µM)

O=C1OC(c2ccc(/N=N/c3ccc(N4CCOCC4)cc3)cc2)=N/C1=C/c1cccs1 :: 13.7
O=C1OC(c2ccc(/N=N/c3ccc(N4CCOCC4)cc3)cc2)=N/C1=C/c1ccc(Cl)cc1 :: 18.9

====

test: Cytotoxicity against mouse B16F10 cells assessed as cell viability at 20 ug/ml incubated for 72 hrs by MTT assay; type: cell-based, B16-F10; details: read-out: Activity
measured_parameter: viability at 72 h, 20 ug/ml (%)
Give the value in % but do not write % after it.

These solved cases illustrate the format of a correct answer.
O=C1OC(c2ccc(/N=N/c3ccc(N4CCOCC4)cc3)cc2)=N/C1=C/c1ccc(Cl)cc1 :: 61.9
O=C1OC(c2ccc(/N=N/c3ccc(N4CCOCC4)cc3)cc2)=N/C1=C/c1cccs1 :: 56.7
O=C1OC(c2ccc(/N=N/c3ccc(N4CCOCC4)cc3)cc2)=N/C1=C/c1ccc(F)cc1Cl :: 60.7
O=C1OC(c2ccc(/N=N/c3ccc(N4CCOCC4)cc3)cc2)=N/C1=C/c1ccc(F)cc1 :: 57.2
O=C1OC(c2ccc(/N=N/c3ccc(N4CCOCC4)cc3)cc2)=N/C1=C/c1ccccc1 :: 62.9

Please look at the following molecule next.
IN: Complete the entry with viability at 72 h, 20 ug/ml for O=C1OC(c2ccc(/N=N/c3ccc(N4CCOCC4)cc3)cc2)=N/C1=C/c1ccccc1[N+](=O)[O-]
OUT: 58.1
